Kindly supply the reported viability, T/C values for the records listed here.
system: 233499-124-R-J3-PDC complex spheroid growth; experiment: Anticancer human tumor 233499-124-R-J3-PDC patient-derived colon adenocarcinoma cell line growth inhibition [AhR]; settings: second compound 0.1 µM; first compound 0.0316 µM; active compounds read low
Numbers only, in %.

Below: 4 molecules and their reported viability, T/C.
[[record]]
molecule = "CC1(C)CCC(CN2CCN(c3ccc(C(=O)NS(=O)(=O)c4ccc(NCC5CCOCC5)c([N+](=O)[O-])c4)c(Oc4cnc5[nH]ccc5c4)c3)CC2)=C(c2ccc(Cl)cc2)C1 + CC(CO)NC(=O)c1cc(-c2ccc(Cl)cc2)nn(-c2cnn(C)c2)c1=O"
recorded_result = 99.8

[[record]]
molecule = "Cn1ncnc1C1c2n[nH]c(=O)c3cc(F)cc(c23)NC1c1ccc(F)cc1 (stereo not given) + Cc1cncc(-c2nc(NCCc3c[nH]c4ccccc34)c3ncn(C(C)C)c3n2)c1"
recorded_result = 88.7

[[record]]
molecule = "Nc1ccn(C2OC(CO)C(O)C2(F)F)c(=O)n1 (stereo not given) + CC(CO)NC(=O)c1cc(-c2ccc(Cl)cc2)nn(-c2cnn(C)c2)c1=O"
recorded_result = 58.7

[[record]]
molecule = "COc1cccc2c1C(=O)c1c(O)c3c(c(O)c1C2=O)CC(O)(C(=O)CO)CC3OC1CC(N)C(O)C(C)O1 (stereo not given) + Cc1cncc(-c2nc(NCCc3c[nH]c4ccccc34)c3ncn(C(C)C)c3n2)c1"
recorded_result = 102


The recorded viability, T/C for entry NS(=O)(=O)OCC1CC(n2ccc3c(NC4CCc5ccccc54)ncnc32)CC1O (stereo not given) + Cc1ccccc1N=Nc1ccc(NC(=O)c2ccnn2C)c(C)c1 equals 110

---

tested on: 233499-124-R-J3-PDC complex spheroid growth; experiment: Anticancer human tumor 233499-124-R-J3-PDC cell line growth inhibition [AhR]; conditions: second compound 0.316 µM; first compound 10 µM; active = viability on the fitted dose curve at most 10% of control; inactive = the rest;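 note: spheroids exposed to agents for seven days before reading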
In this exercise, the only acceptable responses are T (active), F (inactive)

[[record]]
compound = "COc1cccc2c1C(=O)c1c(O)c3c(c(O)c1C2=O)CC(O)(C(=O)CO)CC3OC1CC(N)C(O)C(C)O1 (configuration not stated) + Cc1ccccc1N=Nc1ccc(NC(=O)c2ccnn2C)c(C)c1"
class_label = "F"


Query: recorded result category for O=C(c1cc(Cc2n[nH]c(=O)c3ccccc23)ccc1F)N1CCN(C(=O)C2CC2)CC1 + Cc1cncc(-c2nc(NCCc3c[nH]c4ccccc34)c3ncn(C(C)C)c3n2)c1 in this test
F

Query: recorded result category for COc1cc(Nc2ncc3c(n2)-c2ccc(Cl)cc2C(c2c(F)cccc2OC)=NC3)ccc1C(=O)O + CC(CO)NC(=O)c1cc(-c2ccc(Cl)cc2)nn(-c2cnn(C)c2)c1=O in this test
F

Query: recorded result category for CC1(C)CCC(CN2CCN(c3ccc(C(=O)NS(=O)(=O)c4ccc(NCC5CCOCC5)c([N+](=O)[O-])c4)c(Oc4cnc5[nH]ccc5c4)c3)CC2)=C(c2ccc(Cl)cc2)C1 + CC(CO)NC(=O)c1cc(-c2ccc(Cl)cc2)nn(-c2cnn(C)c2)c1=O in this test
F

Query: recorded result category for Nc1ccccc1NC(=O)c1ccc(CNC(=O)OCc2cccnc2)cc1 + Cc1cncc(-c2nc(NCCc3c[nH]c4ccccc34)c3ncn(C(C)C)c3n2)c1 in this test
T

Query: recorded result category for CC1COCCN1c1cc(C2(S(C)(=N)=O)CC2)nc(-c2ccnc3[nH]ccc23)n1 (configuration not stated) + Cc1ccccc1N=Nc1ccc(NC(=O)c2ccnn2C)c(C)c1 in this test
F

Query: recorded result category for O=C(C=Cc1cccc(S(=O)(=O)Nc2ccccc2)c1)NO + Cc1ccccc1N=Nc1ccc(NC(=O)c2ccnn2C)c(C)c1 in this test
T

Query: recorded result category for CC(C)c1c(-c2ccccc2)nc2c(C#N)c[nH]n2c1=O + CC(CO)NC(=O)c1cc(-c2ccc(Cl)cc2)nn(-c2cnn(C)c2)c1=O in this test
F

Query: recorded result category for COc1cc(C2c3cc4c(cc3C(OC3OC5COC(C)OC5C(O)C3O)C3COC(=O)C23)OCO4)cc(OC)c1O (configuration not stated) + Cc1ccccc1N=Nc1ccc(NC(=O)c2ccnn2C)c(C)c1 in this test
F

Query: recorded result category for COc1cccc2c1C(=O)c1c(O)c3c(c(O)c1C2=O)CC(O)(C(=O)CO)CC3OC1CC(N)C(O)C(C)O1 (configuration not stated) + Cc1cncc(-c2nc(NCCc3c[nH]c4ccccc34)c3ncn(C(C)C)c3n2)c1 in this test
F

Query: recorded result category for Nc1ccccc1NC(=O)c1ccc(CNC(=O)OCc2cccnc2)cc1 + CC(CO)NC(=O)c1cc(-c2ccc(Cl)cc2)nn(-c2cnn(C)c2)c1=O in this test
T

Query: recorded result category for O=C(c1cc(Cc2n[nH]c(=O)c3ccccc23)ccc1F)N1CCN(C(=O)C2CC2)CC1 + Cc1ccccc1N=Nc1ccc(NC(=O)c2ccnn2C)c(C)c1 in this test
F

Query: recorded result category for COc1ccc([C@@H](O)c2cc(-c3ncnc4cc(N5CCOCC5)ccc34)c(F)cc2Cl)nn1 + Cc1ccccc1N=Nc1ccc(NC(=O)c2ccnn2C)c(C)c1 in this test
F

Query: recorded result category for COc1cccc2c1C(=O)c1c(O)c3c(c(O)c1C2=O)CC(O)(C(=O)CO)CC3OC1CC(N)C(O)C(C)O1 (configuration not stated) + CC(CO)NC(=O)c1cc(-c2ccc(Cl)cc2)nn(-c2cnn(C)c2)c1=O in this test
F

Query: recorded result category for NS(=O)(=O)OCC1CC(n2ccc3c(NC4CCc5ccccc54)ncnc32)CC1O (configuration not stated) + Cc1ccccc1N=Nc1ccc(NC(=O)c2ccnn2C)c(C)c1 in this test
T

Value source: PubChem BioAssay AID1918993
